System: Enterococcus faecium
PROTOCOL: Antimicrobial activity against daptomycin-resistant Enterococcus faecium ATCC 6569 incubated anaerobically at 37 degC for 48 hrs by agar dilution method
Assay type: functional
CONDITION: ATCC 6569, 48 h
Would you mind telling me the reported MIC of each entry?
Dear colleague, please return just the value in µg/mL, with no unit written.

Q) What does the record list as MIC for CCCCCCSc1ccc(-c2csc(C(=O)N[C@@H](Cc3c[nH]c4ccccc34)C(=O)N[C@@H](CC(N)=O)C(=O)N[C@@H](CC(=O)O)C(=O)N[C@@H]3C(=O)NCC(=O)N[C@@H](CCCN)C(=O)N[C@H](CC(=O)O)C(=O)N[C@H](C)C(=O)N[C@@H](CC(=O)O)C(=O)NCC(=O)N[C@H](CO)C(=O)N[C@@H]([C@@H](C)CC(=O)O)C(=O)N[C@@H](CC(=O)c4ccccc4N)C(=O)O[C@@H]3C)c2)cc1 ?
A) 16

Q) What does the record list as MIC for CCCCCCCOc1ccc(-c2ccc(C(=O)N[C@@H](Cc3c[nH]c4ccccc34)C(=O)N[C@@H](CC(N)=O)C(=O)N[C@@H](CC(=O)O)C(=O)N[C@@H]3C(=O)NCC(=O)N[C@@H](CCCN)C(=O)N[C@H](CC(=O)O)C(=O)N[C@H](C)C(=O)N[C@@H](CC(=O)O)C(=O)NCC(=O)N[C@H](CO)C(=O)N[C@@H]([C@@H](C)CC(=O)O)C(=O)N[C@@H](CC(=O)c4ccccc4N)C(=O)O[C@@H]3C)cc2)cc1 ?
A) 1

---

Tested on: Clostridioides difficile
PROTOCOL: Antimicrobial activity against daptomycin-resistant Clostridium difficile NAP1 incubated anaerobically at 37 degC for 48 hrs by agar dilution method
Type: functional
CONDITION: NAP1, 48 h
PROPERTY: MIC (µg/mL)
Dear colleague, please return just the value in µg/mL, with no unit written.

Q) What does the record list as MIC for C[C@H]1NC(=O)[C@@H](CC(=O)O)NC(=O)[C@H](CCCN)NC(=O)CNC(=O)[C@@H](NC(=O)[C@H](CC(=O)O)NC(=O)[C@H](CC(N)=O)NC(=O)[C@H](Cc2c[nH]c3ccccc23)NC(=O)C2CCCCCCCCCCC2)[C@@H](C)OC(=O)[C@H](CC(=O)c2ccccc2N)NC(=O)[C@H]([C@@H](C)CC(=O)O)NC(=O)[C@@H](CO)NC(=O)CNC(=O)[C@H](CC(=O)O)NC1=O ?
A) 4

Q) What does the record list as MIC for CCCOc1ccc(-c2ccc(C(=O)N[C@@H](Cc3c[nH]c4ccccc34)C(=O)N[C@@H](CC(N)=O)C(=O)N[C@@H](CC(=O)O)C(=O)N[C@@H]3C(=O)NCC(=O)N[C@@H](CCCN)C(=O)N[C@H](CC(=O)O)C(=O)N[C@H](C)C(=O)N[C@@H](CC(=O)O)C(=O)NCC(=O)N[C@H](CO)C(=O)N[C@@H]([C@@H](C)CC(=O)O)C(=O)N[C@@H](CC(=O)c4ccccc4N)C(=O)O[C@@H]3C)cc2)cc1 ?
A) 4

Q) What does the record list as MIC for CCCCCCCCCCCCCC(=O)N[C@@H](Cc1c[nH]c2ccccc12)C(=O)N[C@@H](CC(N)=O)C(=O)N[C@@H](CC(=O)O)C(=O)N[C@@H]1C(=O)NCC(=O)N[C@@H](CCCN)C(=O)NC(CC(=O)O)C(=O)N[C@H](C)C(=O)N[C@@H](CC(=O)O)C(=O)NCC(=O)N[C@H](CO)C(=O)N[C@@H]([C@@H](C)CC(=O)O)C(=O)N[C@@H](CC(=O)c2ccccc2N)C(=O)O[C@@H]1C (single isomer, unassigned) ?
A) 16

---

Would you mind telling me the reported MIC of each entry?
Tested on: Clostridioides difficile
PROTOCOL: Antimicrobial activity against daptomycin-resistant Clostridium difficile NAP1 incubated anaerobically at 37 degC for 48 hrs by agar dilution method
Format: functional
CONDITION: NAP1, 48 h
Dear colleague, please return just the value in µg/mL, with no unit written.

Q) What does the record list as MIC for C[C@H]1NC(=O)C(CC(=O)O)NC(=O)[C@H](CCCN)NC(=O)CNC(=O)[C@@H](NC(=O)[C@H](CC(=O)O)NC(=O)[C@H](CC(N)=O)NC(=O)[C@H](Cc2c[nH]c3ccccc23)NC(=O)CCCCCCC2CCCCC2)[C@@H](C)OC(=O)[C@H](CC(=O)c2ccccc2N)NC(=O)[C@H]([C@@H](C)CC(=O)O)NC(=O)[C@@H](CO)NC(=O)CNC(=O)[C@H](CC(=O)O)NC1=O (single isomer, unassigned) ?
A) 1

Q) What does the record list as MIC for CCCCCCCCOc1ccc(-c2ccc(C(=O)N[C@@H](Cc3c[nH]c4ccccc34)C(=O)N[C@@H](CC(N)=O)C(=O)N[C@@H](CC(=O)O)C(=O)N[C@@H]3C(=O)NCC(=O)N[C@@H](CCCN)C(=O)N[C@H](CC(=O)O)C(=O)N[C@H](C)C(=O)N[C@@H](CC(=O)O)C(=O)NCC(=O)N[C@H](CO)C(=O)N[C@@H]([C@@H](C)CC(=O)O)C(=O)N[C@@H](CC(=O)c4ccccc4N)C(=O)O[C@@H]3C)cc2)cc1 ?
A) 1

Q) What does the record list as MIC for CCCCCCc1ccc(C(=O)N[C@@H](Cc2c[nH]c3ccccc23)C(=O)N[C@@H](CC(N)=O)C(=O)N[C@@H](CC(=O)O)C(=O)N[C@@H]2C(=O)NCC(=O)N[C@@H](CCCN)C(=O)N[C@H](CC(=O)O)C(=O)N[C@H](C)C(=O)N[C@@H](CC(=O)O)C(=O)NCC(=O)N[C@H](CO)C(=O)N[C@@H]([C@@H](C)CC(=O)O)C(=O)N[C@@H](CC(=O)c3ccccc3N)C(=O)O[C@@H]2C)cc1 ?
A) 4

Q) What does the record list as MIC for CCCCCCOc1ccc(-c2csc(C(=O)N[C@@H](Cc3c[nH]c4ccccc34)C(=O)N[C@@H](CC(N)=O)C(=O)N[C@@H](CC(=O)O)C(=O)N[C@@H]3C(=O)NCC(=O)N[C@@H](CCCN)C(=O)NC(CC(=O)O)C(=O)N[C@H](C)C(=O)N[C@@H](CC(=O)O)C(=O)NCC(=O)N[C@H](CO)C(=O)N[C@@H]([C@@H](C)CC(=O)O)C(=O)N[C@@H](CC(=O)c4ccccc4N)C(=O)O[C@@H]3C)c2)cc1 (single isomer, unassigned) ?
A) 4

Q) What does the record list as MIC for CCCCCCCCCCCCC(=O)N[C@@H](Cc1c[nH]c2ccccc12)C(=O)N[C@@H](CC(N)=O)C(=O)N[C@@H](CC(=O)O)C(=O)N[C@@H]1C(=O)NCC(=O)N[C@@H](CCCN)C(=O)NC(CC(=O)O)C(=O)N[C@H](C)C(=O)N[C@@H](CC(=O)O)C(=O)NCC(=O)N[C@H](CO)C(=O)N[C@@H]([C@@H](C)CC(=O)O)C(=O)N[C@@H](CC(=O)c2ccccc2N)C(=O)O[C@@H]1C (single isomer, unassigned) ?
A) 8

Q) What does the record list as MIC for CCCCCCCCCCC(=O)N[C@@H](Cc1c[nH]c2ccccc12)C(=O)N[C@@H](CC(N)=O)C(=O)N[C@@H](CC(=O)O)C(=O)N[C@@H]1C(=O)NCC(=O)N[C@@H](CCCN)C(=O)NC(CC(=O)O)C(=O)N[C@H](C)C(=O)N[C@@H](CC(=O)O)C(=O)NCC(=O)N[C@H](CO)C(=O)N[C@@H]([C@@H](C)CC(=O)O)C(=O)N[C@@H](CC(=O)c2ccccc2N)C(=O)O[C@@H]1C (single isomer, unassigned) ?
A) 4

---

Would you mind telling me the reported MIC of each entry?
Tested on: Enterococcus faecalis
PROTOCOL: Antimicrobial activity against daptomycin-resistant Enterococcus faecalis ATCC 49452 incubated anaerobically at 37 degC for 48 hrs by agar dilution method
Type: functional
CONDITION: ATCC 49452, 48 h
Dear colleague, please return just the value in µg/mL, with no unit written.

Q) What does the record list as MIC for CCCCCCCCCCC(=O)N[C@@H](Cc1c[nH]c2ccccc12)C(=O)N[C@@H](CC(N)=O)C(=O)N[C@@H](CC(=O)O)C(=O)N[C@@H]1C(=O)NCC(=O)N[C@@H](CCCN)C(=O)NC(CC(=O)O)C(=O)N[C@H](C)C(=O)N[C@@H](CC(=O)O)C(=O)NCC(=O)N[C@H](CO)C(=O)N[C@@H]([C@@H](C)CC(=O)O)C(=O)N[C@@H](CC(=O)c2ccccc2N)C(=O)O[C@@H]1C (single isomer, unassigned) ?
A) 32

Q) What does the record list as MIC for CCCCCCCc1ccc(C(=O)N[C@@H](Cc2c[nH]c3ccccc23)C(=O)N[C@@H](CC(N)=O)C(=O)N[C@@H](CC(=O)O)C(=O)N[C@@H]2C(=O)NCC(=O)N[C@@H](CCCN)C(=O)N[C@H](CC(=O)O)C(=O)N[C@H](C)C(=O)N[C@@H](CC(=O)O)C(=O)NCC(=O)N[C@H](CO)C(=O)N[C@@H]([C@@H](C)CC(=O)O)C(=O)N[C@@H](CC(=O)c3ccccc3N)C(=O)O[C@@H]2C)cc1 ?
A) 8

Q) What does the record list as MIC for CCCCCCCCc1ccc(C(=O)N[C@@H](Cc2c[nH]c3ccccc23)C(=O)N[C@@H](CC(N)=O)C(=O)N[C@@H](CC(=O)O)C(=O)N[C@@H]2C(=O)NCC(=O)N[C@@H](CCCN)C(=O)N[C@H](CC(=O)O)C(=O)N[C@H](C)C(=O)N[C@@H](CC(=O)O)C(=O)NCC(=O)N[C@H](CO)C(=O)N[C@@H]([C@@H](C)CC(=O)O)C(=O)N[C@@H](CC(=O)c3ccccc3N)C(=O)O[C@@H]2C)cc1 ?
A) 8

Q) What does the record list as MIC for CCCCCCCOc1ccc(-c2ccc(C(=O)N[C@@H](Cc3c[nH]c4ccccc34)C(=O)N[C@@H](CC(N)=O)C(=O)N[C@@H](CC(=O)O)C(=O)N[C@@H]3C(=O)NCC(=O)N[C@@H](CCCN)C(=O)N[C@H](CC(=O)O)C(=O)N[C@H](C)C(=O)N[C@@H](CC(=O)O)C(=O)NCC(=O)N[C@H](CO)C(=O)N[C@@H]([C@@H](C)CC(=O)O)C(=O)N[C@@H](CC(=O)c4ccccc4N)C(=O)O[C@@H]3C)cc2)cc1 ?
A) 4
